Some molecules, each annotated with its measured ΔΨm.
tested on: mitochondrial membrane potential; type: cell-based, mouse; details: composite Z-score vs mock-treated (DMSO) wells; concentration of each compound in μM

{"columns": ["MOLECULE", "ΔΨm"],
 "data": [
  ["C[C@@H]1[C@H](O)[C@@H](C)/C=C/C=C/CC/C=C/C=C/C=C/C=C/C(O[C@H]2O[C@H](C)[C@@H](O)[C@H](N)[C@@H]2O)CC2O[C@](O)(CC(O)C(O)CCC(O)CC(O)CC(O)CC(=O)O[C@H]1C)CC(O)C2C(=O)O (stereo partly drawn)", "−0.660"],
  ["COc1cc2c(cc1OC)-c1cc3ccc(OC)c(OC)c3c[n+]1CC2 [Palmatine, reference compound]", "−0.823"],
  ["C/C1=C2/[N-][C@H]([C@H](CC(N)=O)[C@@]2(C)CCC(=O)NC[C@@H](C)OP(=O)([O-])O[C@H]2[C@@H](O)[C@@H](n3cnc4cc(C)c(C)cc43)O[C@@H]2CO)[C@]2(C)N=C(/C(C)=C3N=C(/C=C4N=C1[C@@H](CCC(N)=O)C\\4(C)C)[C@@H](CCC(N)=O)[C@]\\3(C)CC(N)=O)[C@@H](CCC(N)=O)[C@]2(C)CC(N)=O.[Co]", 0.097],
  ["COc1ccc(-c2cc(=O)c3c(OC)cc(OC)c(-c4cc(-c5cc(=O)c6c(OC)cc(OC)cc6o5)ccc4OC)c3o2)cc1", 0.208],
  ["COc1ccc([C@H]2COc3c(ccc(O)c3OC)C2)c(OC)c1O [(−)-duartin]", 0.392],
  ["NC[C@H]1O[C@H](O[C@H]2[C@H](O)[C@@H](O[C@H]3O[C@H](CO)[C@@H](O)[C@H](N)[C@H]3O)[C@H](N)C[C@@H]2N)[C@H](O)[C@@H](O)[C@@H]1O", "−0.812"]
]}

###

test system: mitochondrial membrane potential; format: cell-based, mouse; details: normalized composite Z-score vs mock-treated (DMSO) wells; Conc 20 μM
# cutoff -0.2 applies to ΔΨm; >= gives true (1), < gives false (0)

{"columns": ["MOLECULE", "LABEL CLASS"],
 "data": [
  ["O=C(Oc1cc(O)cc2c1C[C@@H](OC(=O)c1cc(O)c(O)c(O)c1)[C@@H](c1cc(O)c(O)c(O)c1)O2)c1cc(O)c(O)c(O)c1 [epigallocatechin 3,5-digallate]", "false (0)"],
  ["CC[C@H](CC[C@@H](C)[C@H]1CC[C@H]2[C@@H]3CC=C4C[C@@H](OC(C)=O)CC[C@]4(C)[C@H]3CC[C@]12C)C(C)C [sitosteryl acetate]", "true (1)"],
  ["C[C@@H]1C(=O)O[C@H]2C[C@@]34[C@H]5C[C@@H](C(C)(C)C)[C@]36[C@@H](OC(=O)[C@@H]6O)O[C@@]4(C(=O)O5)[C@]21O [ginkgolide A]", "false (0)"],
  ["COc1ccc(-c2cc(=O)c3ccc(OC)cc3o2)cc1", "false (0)"],
  ["C=C[C@@](C)(O)CCC1C(=C)CCC2[C@@](C)(CO)CCC[C@]12C (stereo partly drawn) [epi(13)torulosol]", "true (1)"],
  ["COc1ccc2c(=O)c(CC(=O)O)coc2c1 [anhydrobrazilic acid, reference compound]", "false (0)"],
  ["COc1cccc(C=CC(=O)O)c1C(C)C", "true (1)"],
  ["COc1c2c(cc3occ(-c4ccc5c(c4)OCO5)c(=O)c13)OC(C)(C)C=C2 [methyl robustone, reference compound]", "true (1)"],
  ["COc1ccc(-c2cc(=O)c3c(O)c(OC)c(O[C@@H]4O[C@H](CO[C@@H]5O[C@@H](C)[C@H](O)[C@@H](O)[C@H]5O)[C@@H](O)[C@H](O)[C@H]4O)cc3o2)cc1", "false (0)"],
  ["COc1ccc(C(=O)c2ccc(O)cc2)c(O)c1O [2,3,4′-trihydroxy-4-methoxybenzophenone]", "false (0)"],
  ["CC1(C)C2CC(=O)[C@]3(C)C(CC[C@@]4(C)[C@H](c5ccoc5)OC(=O)[C@H]5O[C@]543)[C@@]2(C)C(=O)C[C@H]1O (some centres unmarked)", "false (0)"],
  ["C[C@]12CC[C@H](O)C[C@H]1CC[C@@H]1[C@@H]2[C@H](O)C[C@]2(C)[C@@H](C3=CC(=O)OC3)CC[C@]12O", "false (0)"],
  ["COc1c(-c2coc3cc4c(cc3c2=O)CC(O)C(C)(C)O4)ccc2c1C=CC(C)(C)O2 (centres unmarked) [mundulone, reference compound]", "true (1)"],
  ["C=C/C(C)=C\\CC1C(C)(O)CCC2C(C)(C)CCCC21C (centres unmarked)", "true (1)"]
]}

###

Attribute: MTT
tested on: cellular dehydrogenase activity; conditions: 20 μM; composite Z-score vs DMSO
Where a SMILES comes first, the peptide text is derived from it. Bridges are numbered along the chain shown (N, C = ends). [ ]: non-standard residue; d: D form. The star is where a group is joined. Ileψ(thiazoline)Cys = CC[C@H](C)[C@H](N)C1=N[C@H](C(=O)*)CS1; dOrn = NCCC[C@@H](N)C(=O)O

{"columns": ["COMPOUND", "SYSTEM NAME", "MTT"],
 "data": [
  ["CC[C@@H](C(=O)[C@@H](C)[C@@H](O)[C@H](C)[C@@H]1O[C@@H]([C@@H](CC)C(=O)O)CC[C@@H]1C)[C@H]1O[C@]2(C=C[C@@H](O)[C@]3(CC[C@@](C)([C@H]4CC[C@](O)(CC)[C@H](C)O4)O3)O2)[C@H](C)C[C@@H]1C [salinomycin, reference compound]", "cellular dehydrogenase activity", "−2.918"],
  ["C/C=C(/C(=C/C)c1ccc(O)cc1)c1ccc(O)cc1", "cellular dehydrogenase activity", "−0.326"],
  ["COC(=O)Nc1nc2ccc(C(=O)c3ccccc3)cc2[nH]1 [mebendazole, reference compound]", "cellular dehydrogenase activity", "−2.060"],
  ["CC(COc1ccccc1)N(CCCl)Cc1ccccc1 (stereo not drawn)", "cellular dehydrogenase activity", "−1.049"],
  ["CC1(C)S[C@@H]2[C@H](NC(=O)COc3ccccc3)C(=O)N2[C@H]1C(=O)O", "cellular dehydrogenase activity", "−1.319"],
  ["CC[C@H](C)[C@H](N)C1=N[C@H](C(=O)N[C@@H](CC(C)C)C(=O)N[C@H](CCC(=O)O)C(=O)N[C@H](C(=O)N[C@H]2CCCCNC(=O)[C@H](CC(N)=O)NC(=O)[C@@H](CC(=O)O)NC(=O)[C@H](Cc3cnc[nH]3)NC(=O)[C@@H](Cc3ccccc3)NC(=O)[C@H]([C@@H](C)CC)NC(=O)[C@@H](CCCN)NC2=O)[C@@H](C)CC)CS1 [bacitracin] ({Ileψ(thiazoline)Cys}-L[dE]IK[dOrn]I[dF]H[dD]N; lactam 4-C)", "cellular dehydrogenase activity", "−0.826"]
]}

###

system: mitochondrial membrane potential; assay type: cell-based, mouse; conditions: Conc 20 μM; normalized score vs mock-treated (DMSO) wells
Kind request: treat -0.5 as inclusive, so ΔΨm (composite Z-score) at -0.5 or higher is y, anything lower is n.

{"columns": ["COMPOUND", "SYSTEM NAME", "LABEL CLASS"],
 "data": [
  ["COc1ccc2c(c1)OC/C(=C\\c1ccc(OC)c(O)c1)C2=O [sappanone A dimethyl ether]", "mitochondrial membrane potential", "y"],
  ["O=C(O)Cc1cc(I)c(Oc2cc(I)c(O)c(I)c2)c(I)c1 [tetrac]", "mitochondrial membrane potential", "n"],
  ["O=c1c(O)cccc2c([C@H]3Oc4cc(O)cc(O)c4C[C@H]3O)cc(O)c(O)c12 [theaflavanin]", "mitochondrial membrane potential", "n"],
  ["O=C(O[C@@H]1Cc2c(O)cc(O)cc2O[C@@H]1c1cc(O)c(O)c(O)c1-c1c([C@H]2Oc3cc(O)cc(O)c3C[C@H]2O)cc(O)c(O)c1O)c1cc(O)c(O)c(O)c1 [2′,2′-bisepigallocatechin monogallate]", "mitochondrial membrane potential", "n"],
  ["CC(C)CCC[C@@H](C)C1CC[C@H]2[C@@H]3CCC4CC(=O)CC[C@]4(C)[C@H]3CC[C@]12C (stereo partly shown) [cholestanone]", "mitochondrial membrane potential", "n"],
  ["CCC(N)C(O)c1ccc(O)c(O)c1 (stereo not shown) [ethylnorepinephrine]", "mitochondrial membrane potential", "n"],
  ["COc1c(O)cccc1O [2-methoxyresorcinol]", "mitochondrial membrane potential", "n"],
  ["CC(=O)O[C@@H]1CC2C(C)(C)[C@H](O)C=C[C@]2(C)C2CC[C@]3(C)C(=CC(=O)O[C@H]3c3ccoc3)[C@@]21C (stereo partly drawn) [3-alpha-hydroxydeoxygedinin]", "mitochondrial membrane potential", "y"],
  ["COc1cc2c(cc1-c1coc3c4c(c(OC)cc3c1=O)OC(C)(C)C=C4)OCO2 [ichthynone, reference compound]", "mitochondrial membrane potential", "y"],
  ["COc1ccc2c(c1)C1(C)CCC(=O)CC1CC2 (stereo not shown)", "mitochondrial membrane potential", "n"],
  ["O=C(O)c1nc2cc(Cl)c(Cl)cc2nc1O", "mitochondrial membrane potential", "n"],
  ["Cc1c(O)c(C(=O)CC(C)C)c2oc3c(C(=O)CC(C)C)c(O)c(C)c(O)c3c2c1O [rhodomyrtoxin]", "mitochondrial membrane potential", "y"],
  ["CC(=O)O[C@H]1C[C@@H](OC(C)=O)C(C)(C)[C@@H]2C[C@@H](OC(C)=O)[C@@]3(C)C4=CC(=O)O[C@@H](c5ccoc5)[C@]4(C)CC[C@@H]3[C@@]12C [deoxykhivorin]", "mitochondrial membrane potential", "y"],
  ["COc1ccccc1-c1cc(=O)c2cccc(OC)c2o1 [8,2′-dimethoxyflavone]", "mitochondrial membrane potential", "y"]
]}

Cited source for all entries: patent US20090143279A1
